Source listed as paper PMC9482650.

Measured on: DLG1_1, Q12959
Test: holdup assay
Design: key: below the threshold = too weak to quantify, mostly under pKd 3.1 to 4
Setup conditions: plain residues with an end cap or a label only (N-terminal biotin on a linker: ado-ado)
Metric name: pKd

Worked examples, 6 binders total:
Binder | pKd
SAAKVLTSMC [GHRHR, Q02643] | below the threshold
ETQVTAETVI [TMEM225B, P0DP42] | 3.91
EALLQMESVA [CAVIN3, Q969G5] | below the threshold
MLSKQSESAI [FLVCR1, Q9Y5Y0] | below the threshold
FNSYSLTGYV [CLDN2, P57739] | below the threshold
IPLDGETEEL [MYOZ1, Q9NP98] | below the threshold

Reported pKd for PDGQCTVTEV [RNF146, Q9NTX7] : what is it? 4.53

Reported pKd for CLREWCDAFL [BANF1, O75531] : what is it? below the threshold
